Listed compounds paired with reported MIC
# System: Enterococcus faecium
# Method Description: Antibacterial activity against vancomycin resistant Enterococcus faecium NCTC 12204 assessed as bacterial growth inhibition incubated for overnight by microbroth dilution method
# Format: functional
Property Measured: MIC (µg/mL)

> print(dat)
                                item.smiles           test.target    uom  qualifier.sign  quantitative.readout
1                          NCCCCCCCCN=C(N)N  Enterococcus faecium  µg/mL               >                   128
2   CCCCCCCC/C=C\CCCCCCCCNC(=N)NCCCCNC(=N)N  Enterococcus faecium  µg/mL               =                     2
3                    N=C(N)NCCCCCCCCNC(=N)N  Enterococcus faecium  µg/mL               >                   128
4                    CCCCCCCCCCNC(=N)NCCCCN  Enterococcus faecium  µg/mL               >                   128
5  CCCCCCCC/C=C\CCCCCCCCNC(=N)NCCCCCCCCNC(=N)N  Enterococcus faecium  µg/mL               =                     4

---

# Tested on: Acinetobacter baumannii
# Method Description: Synergistic antibacterial activity against Acinetobacter baumannii ATCC 17978 assessed as rifampicin MIC at <=0.25 times MIC incubated for overnight by microbroth dilution checkerboard assay
# Type: functional
Below is a list of entries, each paired with its recorded MIC value.
Property Measured: MIC (µg/mL)

> print(dat)
                                 item.smiles              test.target    uom  qualifier.sign  quantitative.readout
 1      CCCCC/C=C\C/C=C\CCCCCCCCNC(=N)NCCCCN  Acinetobacter baumannii  µg/mL               =                   0.5
 2  CCCCC/C=C\C/C=C\CCCCCCCCNC(=N)NCCCCCCCCNC(=N)N  Acinetobacter baumannii  µg/mL               =                     1
 3                    CCCCCCCCCCCC(=O)NCCCCN  Acinetobacter baumannii  µg/mL               =                     4
 4                CCCCCCCCCCNC(=N)NCCCC(=O)O  Acinetobacter baumannii  µg/mL               =                     2
 5   CCCCCCCC/C=C\CCCCCCCCNC(=N)NCCCCNC(=N)N  Acinetobacter baumannii  µg/mL               ≤                 0.125
 6                     CCCCCCCCCCCC(=O)NCCCC  Acinetobacter baumannii  µg/mL               =                     4
 7            CCCCCCCCCCCCCCCCCCNC(=N)NCCCCN  Acinetobacter baumannii  µg/mL               ≤                 0.125
 8  CCCCC/C=C\C/C=C\CCCCCCCCNC(=N)NCCCCCCCCN  Acinetobacter baumannii  µg/mL               ≤                 0.125
 9         CCCCCCCC/C=C\CCCCCCCCNC(=N)NCCCCN  Acinetobacter baumannii  µg/mL               ≤                 0.125
10              CCCCCCCCCCNC(=N)NCCCCNC(=N)N  Acinetobacter baumannii  µg/mL               ≤                 0.125
11                          NCCCCCCCCN=C(N)N  Acinetobacter baumannii  µg/mL               =                     1
